- system: interaction between p53 and MDM2 proteins (recombinant GST-tagged MDM2) (Homo sapiens, UniProt Q00987)
- Sequence (Q00987 whole entry): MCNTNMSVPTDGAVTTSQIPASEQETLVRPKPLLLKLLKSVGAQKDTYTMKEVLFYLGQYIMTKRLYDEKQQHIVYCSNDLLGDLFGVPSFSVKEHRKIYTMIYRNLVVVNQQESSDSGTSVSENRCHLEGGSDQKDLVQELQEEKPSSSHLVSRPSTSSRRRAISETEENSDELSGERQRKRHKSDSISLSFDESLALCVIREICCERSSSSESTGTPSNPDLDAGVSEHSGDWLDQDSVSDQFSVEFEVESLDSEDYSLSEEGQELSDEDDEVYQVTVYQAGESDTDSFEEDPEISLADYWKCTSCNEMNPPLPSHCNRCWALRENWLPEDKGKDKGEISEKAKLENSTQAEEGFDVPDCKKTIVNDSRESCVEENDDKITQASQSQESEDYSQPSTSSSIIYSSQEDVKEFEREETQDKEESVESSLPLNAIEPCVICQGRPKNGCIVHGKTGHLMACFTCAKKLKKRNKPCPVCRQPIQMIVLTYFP
- assay info: HTRF assay of inhibition of the p53-MDM2 interaction (GST-MDM2 / biotinylated p53 peptide)
- Type: binding
observed property: IC50
Remember to put the unit after the number in your answer.

Task item: Need IC50, item `COc1cc(C(=O)OCCCC(=O)O)ccc1NC(=O)[C@@H]1N[C@@H](CC(C)(C)C)[C@](C#N)(c2ccc(Cl)cc2F)[C@H]1c1cccc(Cl)c1F`
Reply: 4.98 nM

---

- system: interaction between p53 and MDM2 proteins (recombinant GST-tagged MDM2) (Homo sapiens, UniProt Q00987)
- assay info: HTRF assay of inhibition of the p53-MDM2 interaction (GST-MDM2 / biotinylated p53 peptide);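 also: FRET read-out from Eu-labelled anti-GST antibody to streptavidin-APC, with 90 nM N-terminally biotinylated p53 peptide and 160 ng/ml GST-MDM2 in Tris-borate saline containing 1 mM DTT, 384-well format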
- Type: binding
- assay conditions: HTRF, 0.02% BSA, 37° C. 1 h
Where a name gives a salt, the structure may show the parent alone.
Catalogue of molecules with associated IC50
Provide only the numeric value, understood in nM.

Worked examples follow.
1. COc1cc(C(=O)OC(C)CN2CCOCC2)ccc1NC(=O)[C@@H]1N[C@@H](CC(C)(C)C)[C@](C#N)(c2ccc(Cl)cc2F)[C@H]1c1cccc(Cl)c1F (stereo partly shown) [Example 21]: 13.7
2. COc1cc(C(=O)N[C@@H]2[C@@H](O)[C@H](O)[C@@H](CO)O[C@@H]2O)ccc1NC(=O)[C@@H]1N[C@@H](CC(C)(C)C)[C@](C#N)(c2ccc(Cl)cc2F)[C@H]1c1cccc(Cl)c1F [Example 56, hydrochloride]: 9.88
3. COc1cc(C(=O)OCC(CO)CO)ccc1NC(=O)[C@@H]1N[C@@H](CC(C)(C)C)[C@](C#N)(c2ccc(Cl)cc2F)[C@H]1c1cccc(Cl)c1F [Example 9]: 12

Turning to the following molecule.
Task item: # query: IC50 of entry COc1cc(C(=O)OCCOC(=O)[C@@H](C)N)ccc1NC(=O)[C@@H]1N[C@@H](CC(C)(C)C)[C@](C#N)(c2ccc(Cl)cc2F)[C@H]1c1cccc(Cl)c1F [Example 6]
Reply: 37.1
